B1: MYBL2 (parent)
chain: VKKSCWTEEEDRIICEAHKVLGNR

- Variants of: B1
- assay method text: protein stability index of a GFP-peptide fusion (GPS, HEK-293T) (PSI 1-6); higher = more stable;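 further: lentivirally expressed fusions sorted by FACS into six bins by GFP to DsRed ratio, PSI derived from sequencing read proportions per bin multiplied by bin number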
- test parameters: c terminus: a fixed tail appended
# protein stability index >= 3 gives True, anything below gives False

Known results for variants:
* K19S | True
* D11H | True
* R24A | True

Qu. Confirm if protein stability index reported for the variant `K19G` is 3 or above.
Ans. True

Qu. Confirm if protein stability index reported for the variant `E9R` is 3 or above.
Ans. False

Qu. Confirm if protein stability index reported for the variant `H18S` is 3 or above.
Ans. True

Qu. Confirm if protein stability index reported for the variant `H18T` is 3 or above.
Ans. True

Qu. Confirm if protein stability index reported for the variant `N23P` is 3 or above.
Ans. True

Qu. Confirm if protein stability index reported for the variant `I14A` is 3 or above.
Ans. True

Qu. Confirm if protein stability index reported for the variant `A17K` is 3 or above.
Ans. True

Qu. Confirm if protein stability index reported for the variant `V20M` is 3 or above.
Ans. True

Qu. Confirm if protein stability index reported for the variant `C15N` is 3 or above.
Ans. True

Qu. Confirm if protein stability index reported for the variant `G22I` is 3 or above.
Ans. False

Qu. Confirm if protein stability index reported for the variant `K19I` is 3 or above.
Ans. False

Hello, the source for this data is the supplement of paper PMC10567573, in case you need it.
